A collection of compounds and their measured Induction above DMSO
test.system: human receptor PXR (Homo sapiens)
Sequence (O75469 whole entry): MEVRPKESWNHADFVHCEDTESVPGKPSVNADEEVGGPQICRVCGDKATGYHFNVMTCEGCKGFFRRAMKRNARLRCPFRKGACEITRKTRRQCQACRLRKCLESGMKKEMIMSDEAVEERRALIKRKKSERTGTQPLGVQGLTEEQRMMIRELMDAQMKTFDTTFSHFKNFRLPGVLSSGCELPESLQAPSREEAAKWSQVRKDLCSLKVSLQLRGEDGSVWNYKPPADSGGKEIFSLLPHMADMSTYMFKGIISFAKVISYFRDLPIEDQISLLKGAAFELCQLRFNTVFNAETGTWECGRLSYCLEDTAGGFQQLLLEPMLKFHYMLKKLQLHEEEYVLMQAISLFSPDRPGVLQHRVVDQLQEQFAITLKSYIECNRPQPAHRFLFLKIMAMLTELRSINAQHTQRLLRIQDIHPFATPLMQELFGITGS
experiment.notes: activation of the PXR receptor: CYP3A4 luciferase reporter induction in cell line DPX2
experimental.setup: 10 μM; ratio of luciferase activity to DMSO-treated cells

These solved cases illustrate the format of a correct answer.
COC1CCOC2(C)Oc3c(C)c(O)c4c(O)c(c(C=NN5CCN(C)CC5)c(O)c4c3C2=O)NC(=O)C(C)CCCC(C)C2OC(C)(C)OC(C2C)C(C)C(OC(C)=O)C1C (stereo not shown) | 48.6
CO[C@H]1/C=C/O[C@@]2(C)Oc3c(C)c(O)c4c(c3C2=O)C(=O)C(N2CCOCC2)=C(NC(=O)/C(C)=C\C=C\[C@H](C)[C@@H]2OC(C)(C)O[C@@H]([C@@H](C)[C@H](OC(C)=O)[C@@H]1C)[C@@H]2C)C4=O [Example 23, reference compound] | 35.3

Consider the compound COC1CCOC2(C)Oc3c(C)c(O)c4c(O)c(c(C=NN5CCN(C)CC5)c(O)c4c3C2=O)NC(=O)C(C)CCCC(C)C(O)C(C)C(O)C(C)C(OC(C)=O)C1C (stereo not shown) . State its measured Induction above DMSO.
54.1

State its Induction above DMSO: CC[C@H](C)C(=O)O[C@H]1CCC=C2C=C[C@H](C)[C@H](CC[C@@H]3C[C@@H](O)CC(=O)O3)[C@H]21
3.4

Values from patent US20100168129A1
